Where these numbers come from: PubChem BioAssay (NCI)

- Test system: SR leukemia
- Procedure details: NCI-60 one-dose screen, 48 h (100 = growth as untreated, 0 = no growth, -100 = all killed)
- Test context: 10 µM unless noted
About 83,000 compounds went through this panel and 20% of them were active in at least one assay; those are over-represented in the sample as a whole.
# growth annotations
Your answer should be a plain number; it is taken to be in %.

[Q] Quick one: growth of COc1ccc2c(c1)C/C(=C\c1cc(-c3ccc4c(c3)OCO4)n[nH]1)C2=O ?
[A] 73.7

[Q] For C#CCn1c2c(c3ccccc31)C[C@]1(C)[C@H]3CC[C@@H]4[C@@H]5C(=CCC[C@H]5C(=C)C)CC[C@@]4(C)[C@]3(C)CC[C@H]1C2(C)C then?
[A] 82.7

[Q] For Oc1cccc2oc(=S)[nH]c12 then?
[A] 90.4

====

# growth annotations
- Tested on: MALME-3M melanoma
- Procedure details: NCI-60 one-dose screen, 48 h (100 = growth as untreated, 0 = no growth, -100 = all killed)
- Test context: 10 µM unless noted
Compounds without any hit were thinned out: in the full panel of roughly 83,000, 20% have a hit. Calls of active or inactive are those of the source. How the source made its calls: active means growth percent below 10; inactive means the rest.

Some solved entries appear below for comparison.
[Q] Recall the recorded growth for CSc1ccc(N(C)c2nc(C)nc3c2CCC3)cc1 with MALME-3M melanoma and state it.
[A] 92.8% (inactive)

[Q] For Cc1cc(N2CCOCC2)nc(N(CCCNc2ccnc3cc(Cl)ccc23)Cc2ccco2)n1 then?
[A] 53.6% (inactive)

[Q] For C=C(C)[C@@H]1CC[C@]2(C(=O)NNC(=O)c3cccnc3)CC[C@]3(C)[C@H](CC[C@@H]4[C@@]5(C)CCCNC(C)(C)[C@@H]5CC[C@]43C)[C@@H]12 then?
[A] 66.6% (inactive)

[Q] For COc1ccc(C2(Cl)c3ccccc3N(c3ccccc3)c3ccccc32)cc1 then?
[A] -57% (active)

---
[Q] Recall the recorded growth for Cn1cc(-c2csc(-c3cn(CCCN4CCCCC4)c4ccc(F)cc34)n2)c2cccnc21 with MALME-3M melanoma and state it.
[A] -43% (active)

[Q] For COc1cc(/C=C2\C(=O)N(CC(O)COc3cc(O)c4c(=O)cc(-c5ccccc5)oc4c3)c3ccccc32)cc(OC)c1O (configuration not stated) then?
[A] 99.1% (inactive)

[Q] For COc1ccc(C2C(C#N)=C(N)Oc3c2sc2c(F)cccc32)cc1 (configuration not stated) then?
[A] 65.4% (inactive)

====

- Tested on: PC-3 prostate
- Procedure details: NCI-60 one-dose screen, 48 h
- Test context: 10 µM unless noted
Compounds without any hit were thinned out: in the full panel of roughly 83,000, 20% have a hit. Activity calls are given as the source filed them. The calls were made as follows: active = growth percent below 10; inactive = the rest.
Respond using exactly one of the listed classes: active, inactive

[Q] How was O=C(/C=C/c1cccc(O)c1)c1ccccc1O classified in this test?
[A] inactive

Continue with the compound presented below.
[Q] How was O=C(NC(Cc1cn(Cc2ccccc2)cn1)C(=O)O)OCC1c2ccccc2-c2ccccc21 (configuration not stated) classified in this test?
[A] inactive

====

- Test system: NCI-H522 lung
- Procedure details: NCI-60 one-dose screen, 48 h
- Test context: 10 µM unless noted
The panel holds about 83,000 compounds, 20% with a hit somewhere; the sample as a whole holds those more often. Active and inactive are the calls of the source. How the source made its calls: active means growth percent below 10; inactive means the rest.
Respond using exactly one of the listed classes: YES (active), NO (inactive)

[Q] How was CN(C)c1ccc(-c2ccc(-c3ccc(C(=N)N)c(F)c3)s2)cc1 classified in this test?
[A] YES

[Q] For C/C(Cc1ccc(Cl)cc1)=C(/c1ccc(Cl)cc1)c1ccc(OCCN2CCCC2)cc1 then?
[A] NO

[Q] For Cn1cc(-c2csc(-c3cn(CCN)c4ccc(Br)cc34)n2)c2cccnc21 then?
[A] NO

Continue with the molecule presented below.
[Q] How was CCCCn1c(-c2ccc(O)cc2)cn2c3c(=O)[nH]c(=O)n(C)c3nc12 classified in this test?
[A] NO
